Listed here: items and their measured pEC50.
TARGET_ENTITY: human Chemokine like receptor 1 (Homo sapiens)
Construct: host or cells: U2OS (Tango CMKLR1-bla U2OS)
Sequence (Q99788 1-373): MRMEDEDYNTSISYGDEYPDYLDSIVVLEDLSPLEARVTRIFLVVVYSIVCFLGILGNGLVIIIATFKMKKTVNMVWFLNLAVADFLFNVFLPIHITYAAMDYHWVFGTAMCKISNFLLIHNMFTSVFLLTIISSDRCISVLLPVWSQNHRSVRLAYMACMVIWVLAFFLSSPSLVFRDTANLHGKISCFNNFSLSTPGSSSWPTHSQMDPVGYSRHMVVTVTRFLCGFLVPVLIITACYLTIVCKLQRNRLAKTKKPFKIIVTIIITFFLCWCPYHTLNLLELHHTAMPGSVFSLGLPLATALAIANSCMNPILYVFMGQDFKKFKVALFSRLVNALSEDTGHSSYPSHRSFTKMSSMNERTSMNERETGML
MEASUREMENT_PROTOCOL: Activation of Tango CMKLR1-bla U2OS cells (beta-lactamase FRET reporter)
Assay type: cell-based
CONDITION_PARAMETERS: determination by the method of Effect Embodiment 1; read-out: EC50
pEC50: −log10 of the molar value. Square brackets hold non-standard residues; d marks the D form. Peptide text beside a SMILES is read from it. Pro(4,4-F2) = O=C(O)[C@@H]1CC(F)(F)CN1; 1Nal = N[C@@H](Cc1cccc2ccccc12)C(=O)O; dNMeY = CN[C@H](Cc1ccc(O)cc1)C(=O)O; Tic = O=C(O)[C@@H]1Cc2ccccc2CN1; NMeL = CN[C@@H](CC(C)C)C(=O)O; NMeS = CN[C@@H](CO)C(=O)O

{"COMPOUND": "CC(C)C[C@@H](C(=O)N1CCC[C@H]1C(=O)N[C@H](CO)C(=O)N[C@@H](CCC(N)=O)C(=O)N[C@@H](Cc1ccccc1)C(=O)N[C@H](C)C(=O)N1Cc2ccccc2C[C@H]1C(=O)N[C@@H](CO)C(=O)O)N(C)C(=O)[C@H](Cc1ccccc1)NC(=O)[C@H](N)Cc1ccc(O)cc1 [YW-98] (H-[dY]F[NMeL]P[dS]QF[dA][Tic]S-OH)", "TARGET_ENTITY": "human Chemokine like receptor 1 (Homo sapiens)", "pEC50": 8.52}
{"COMPOUND": "CC(C)C[C@@H](C(=O)N1CC(F)(F)C[C@H]1C(=O)N[C@H](CO)C(=O)N[C@@H](CCC(N)=O)C(=O)N[C@@H](Cc1ccccc1)C(=O)N[C@H](C)C(=O)N1Cc2ccccc2C[C@H]1C(=O)N[C@@H](CO)C(=O)O)N(C)C(=O)[C@H](Cc1ccccc1)NC(=O)[C@H](N)Cc1ccc(O)cc1 [YW-174] (H-[dY]F[NMeL][Pro(4,4-F2)][dS]QF[dA][Tic]S-OH)", "TARGET_ENTITY": "human Chemokine like receptor 1 (Homo sapiens)", "pEC50": 8.92}
{"COMPOUND": "CN[C@H](Cc1ccc(O)cc1)C(=O)N[C@@H](Cc1ccccc1)C(=O)N(C)[C@@H](CC(C)C)C(=O)N1CCC[C@H]1C(=O)N[C@H](CO)C(=O)N[C@@H](CCC(N)=O)C(=O)N[C@@H](Cc1cccc2ccccc12)C(=O)N[C@H](C)C(=O)N1Cc2ccccc2C[C@H]1C(=O)N(C)[C@@H](CO)C(=O)O [YW-162] (H-[dNMeY]F[NMeL]P[dS]Q[1Nal][dA][Tic][NMeS]-OH)", "TARGET_ENTITY": "human Chemokine like receptor 1 (Homo sapiens)", "pEC50": 8.59}
